test system: Escherichia coli; test: Activity in vitro: minimum inhibitory concentration; format: cell-based; details: Escherichia coli strain 5
Structures can show the parent of a compound that is named as a salt.
OUTCOME_MEASURE: MIC (µg/mL)
Reply numerically in µg/mL, unit not repeated.

Example cases with answers are listed next.
CO/N=C(\C(=O)N[C@@H]1C(=O)N2C(C(=O)[O-])=C(CSc3n[nH]c(=O)c(=O)n3C)CS[C@H]12)c1c[se]c(N)n1.[Na+] [Product G] = 0.2
CO/N=C(\C(=O)N[C@@H]1C(=O)N2C(C(=O)O)=C(CSc3nc(=O)c(O)nn3C)CS[C@H]12)c1c[se]c(N)n1 [Product C, disodium salt] = 0.2
CC(C)(O/N=C(\C(=O)N[C@@H]1C(=O)N2C(C(=O)[O-])=C(C[n+]3ccccc3)CS[C@H]12)c1c[se]c(N)n1)C(=O)O [Product K] = 0.4

Please tell me: MIC of CO/N=C(\C(=O)N[C@@H]1C(=O)N2C(C(=O)O)=C(CSc3nc(=O)c(O)nn3C)C[S+]([O-])[C@H]12)c1c[se]c(N)n1 (stereo partly shown) [Product E, disodium salt] , system Escherichia coli?
0.4

Next molecule up: CO/N=C(\C(=O)N[C@@H]1C(=O)N2C(C(=O)O)=C(C)CS[C@H]12)c1c[se]c(N)n1 [Product F, sodium salt]
3.1
